Origin of measurements: patent US7119217B2

# experiment: Caco-2 apical to basolateral (A to B) absorption/transport assay
# measurement-context: human, Caco-2
observation-type: Papp A→B at 2 h

molecule	observation-type	measured
OC[C@@H](O)[C@@H](O)[C@H](O)[C@H](O)CO [Mannitol]	Papp A→B at 2 h	1.13 ×10⁻⁶ cm/s
